Data origin, for the record: ChEMBL document CHEMBL3596131

Can you tell me EC50 for the items I'm about to list?
biological target: Glucose-dependent insulinotropic receptor (Rattus norvegicus, UniProt Q7TQN8); assay: Agonist activity at rat GPR119 by HTRF cAMP assay
Dear colleague, please return just the value in µM, with no unit written.

Prompt line: Name the recorded EC50 for CS(=O)(=O)c1cnc(O[C@H]2CC[C@H](OC3CCN(C(=O)C4(C(F)(F)F)CCCC4)CC3)CC2)cn1 .
Response line: 0.108

Prompt line: Suppose we examine the compound C[C@H](OC(=O)N1CCC(O[C@H]2CC[C@H](Oc3cnc(S(C)(=O)=O)cn3)CC2)CC1)C(F)(F)F ; what EC50 value has been reported?
Response line: 0.0499

Prompt line: Item CS(=O)(=O)c1cnc(O[C@H]2CC[C@H](OC3CCN(C(=O)Oc4ccccc4)CC3)CC2)cn1 has what recorded EC50?
Response line: 0.0718

Prompt line: Sample CC(C)(C)OC(=O)N1CCC(O[C@H]2CC[C@H](Oc3ccc(S(C)(=O)=O)cc3)CC2)CC1 — what was its EC50?
Response line: 0.094

====

test: Oral bioavailability in Sprague-Dawley rat at 2 mg/kg; format: ADME, organism-based; details: in vivo
Assay Endpoint: bioavailability (%)
Reply numerically in %, unit not repeated.

Prompt line: Look up bioavailability for this molecule: C[C@@H](OC(=O)N1CCC(O[C@H]2CC[C@H](Oc3cnc(S(C)(=O)=O)cn3)CC2)CC1)C(F)(F)F
Response line: 100

====

biological target: Voltage-gated inwardly rectifying potassium channel KCNH2 (Homo sapiens, UniProt Q12809); assay: Inhibition of human ERG by patch clamp assay
Sequence (Q12809 whole entry): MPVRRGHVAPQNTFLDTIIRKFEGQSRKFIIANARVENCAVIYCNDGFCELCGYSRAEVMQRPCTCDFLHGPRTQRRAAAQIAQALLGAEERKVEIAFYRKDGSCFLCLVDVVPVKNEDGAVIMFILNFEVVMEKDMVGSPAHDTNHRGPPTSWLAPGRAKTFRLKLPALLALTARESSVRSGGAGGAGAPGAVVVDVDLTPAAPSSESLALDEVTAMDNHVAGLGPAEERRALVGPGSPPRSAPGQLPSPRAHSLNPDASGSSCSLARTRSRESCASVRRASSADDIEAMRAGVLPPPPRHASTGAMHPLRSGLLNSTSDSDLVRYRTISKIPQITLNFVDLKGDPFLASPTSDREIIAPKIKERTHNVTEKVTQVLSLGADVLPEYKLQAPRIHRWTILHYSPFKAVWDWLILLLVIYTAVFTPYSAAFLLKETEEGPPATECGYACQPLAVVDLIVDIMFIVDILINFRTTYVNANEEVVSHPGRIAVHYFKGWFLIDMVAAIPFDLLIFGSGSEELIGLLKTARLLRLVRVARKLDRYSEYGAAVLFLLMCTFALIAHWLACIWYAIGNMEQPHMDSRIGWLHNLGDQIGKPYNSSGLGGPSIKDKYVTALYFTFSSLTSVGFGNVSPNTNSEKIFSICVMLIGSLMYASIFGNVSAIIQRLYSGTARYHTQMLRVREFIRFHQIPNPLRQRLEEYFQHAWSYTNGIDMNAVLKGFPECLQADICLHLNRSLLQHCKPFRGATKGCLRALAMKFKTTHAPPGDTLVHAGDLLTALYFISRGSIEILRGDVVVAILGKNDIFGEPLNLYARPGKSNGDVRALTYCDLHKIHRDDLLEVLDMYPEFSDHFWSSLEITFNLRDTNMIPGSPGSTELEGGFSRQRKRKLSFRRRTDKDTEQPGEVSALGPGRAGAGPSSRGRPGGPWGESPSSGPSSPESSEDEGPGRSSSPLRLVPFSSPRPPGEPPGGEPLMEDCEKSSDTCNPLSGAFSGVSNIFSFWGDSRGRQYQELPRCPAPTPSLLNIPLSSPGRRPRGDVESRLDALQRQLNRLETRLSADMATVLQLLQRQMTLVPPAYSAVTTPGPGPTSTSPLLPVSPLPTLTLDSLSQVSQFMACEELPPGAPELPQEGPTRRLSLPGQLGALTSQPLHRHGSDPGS
Assay Endpoint: IC50

Prompt line: # query: IC50 of entry C[C@@H](OC(=O)N1CCC(O[C@H]2CC[C@H](Oc3cnc(S(C)(=O)=O)cn3)CC2)CC1)C(F)(F)F
Response line: > 30 µM

====

target: Glucose-dependent insulinotropic receptor (Rattus norvegicus); assay: Agonist activity at rat GPR119 by HTRF cAMP assay
Threshold check on EC50: strictly below 100 nM is true (1); on or above 100 nM is false (0).

Prompt line: Item CC1(OC(=O)N2CCC(O[C@H]3CC[C@H](Oc4cnc(S(C)(=O)=O)cn4)CC3)CC2)CC1 : EC50 beneath 100 nM, strictly?
Response line: false (0)

Prompt line: Would you kindly verify if EC50 of CC(C)(C)OC(=O)N1CCC(O[C@H]2CC[C@H](Oc3ccc(S(C)(=O)=O)cc3F)CC2)CC1 is strictly less than 100 nM?
Response line: true (1)

Prompt line: Here's an entry: CC(C)S(=O)(=O)c1cnc(O[C@H]2CC[C@H](OC3CCN(C(=O)OC(C)(C)C)CC3)CC2)cn1 . Is its EC50 below 100 nM?
Response line: true (1)

Prompt line: Item CS(=O)(=O)c1cnc(O[C@H]2CC[C@H](OC3CCN(CC4(C(F)(F)F)CCC4)CC3)CC2)cn1 : EC50 beneath 100 nM, strictly?
Response line: true (1)

Prompt line: Is EC50 strictly under 100 nM for the entry C[C@H](CF)OC(=O)N1CCC(O[C@H]2CC[C@H](Oc3cnc(S(C)(=O)=O)cn3)CC2)CC1 ?
Response line: false (0)

Prompt line: Is EC50 of Cc1nc(S(C)(=O)=O)ccc1O[C@H]1CC[C@H](OC2CCN(C(=O)OC(C)C)CC2)CC1 strictly below 100 nM?
Response line: true (1)

Prompt line: Does the reported EC50 of the following compound sit strictly below 100 nM? C[C@@H](CF)OC(=O)N1CCC(O[C@H]2CC[C@H](Oc3cnc(S(C)(=O)=O)cn3)CC2)CC1
Response line: false (0)

Prompt line: Identify whether the compound CC(C)(C)OC(=O)N1CCC(O[C@H]2CC[C@H](Oc3ccc(C#N)cc3)CC2)CC1 records EC50 below 100 nM.
Response line: true (1)

Prompt line: For this compound, is EC50 lower than 100 nM? CC(C)(C)OC(=O)N1CCC(O[C@H]2CC[C@H](Oc3cnc(S(C)(=O)=O)cn3)CC2)CC1
Response line: true (1)

Prompt line: Strictly below 100 nM in EC50? CS(=O)(=O)c1cnc(O[C@H]2CC[C@H](OC3CCN(CC4(F)CCCC4)CC3)CC2)cn1
Response line: false (0)

Prompt line: Lab note: EC50 threshold 100 nM. Does this compound come in strictly under it? CS(=O)(=O)c1cnc(O[C@H]2CC[C@H](OC3CCN(CC4(C(F)(F)F)CC4)CC3)CC2)cn1
Response line: false (0)

Prompt line: Take the compound CS(=O)(=O)c1cnc(O[C@H]2CC[C@H](OC3CCN(CC(F)(F)F)CC3)CC2)cn1 and say whether its EC50 is less than 100 nM.
Response line: false (0)

Prompt line: Is EC50 strictly under 100 nM for the entry CC(C)OC(=O)N1CCC(O[C@H]2CC[C@H](Oc3cnc(S(C)(=O)=O)cn3)CC2)CC1 ?
Response line: false (0)

Prompt line: A record lists CS(=O)(=O)c1cnc(O[C@H]2CC[C@H](OC3CCN(C(=O)OC4CCOC4)CC3)CC2)cn1 (some centres not stated) . Is its EC50 below 100 nM?
Response line: false (0)

Prompt line: Criterion: EC50 strictly below 100 nM. Is it met by CS(=O)(=O)c1cnc(O[C@H]2CC[C@H](OC3CCN(C(=O)C4(C(F)(F)F)CC4)CC3)CC2)cn1 ?
Response line: false (0)

Prompt line: For CC(C)(C)OC(=O)N1CCC(O[C@H]2CC[C@H](Oc3cnc(C#N)cn3)CC2)CC1 , is the recorded EC50 below the cut-off of 100 nM?
Response line: true (1)

Prompt line: Input CC(C)(C)OC(=O)N1CCC(O[C@H]2CC[C@@H](Oc3ccc(S(C)(=O)=O)cc3)CC2)CC1 ; condition: EC50 strictly below 100 nM. Does it hold?
Response line: false (0)

====

Target: Glucose-dependent insulinotropic receptor (Rattus norvegicus) (UniProt Q7TQN8)
Sequence (whole entry): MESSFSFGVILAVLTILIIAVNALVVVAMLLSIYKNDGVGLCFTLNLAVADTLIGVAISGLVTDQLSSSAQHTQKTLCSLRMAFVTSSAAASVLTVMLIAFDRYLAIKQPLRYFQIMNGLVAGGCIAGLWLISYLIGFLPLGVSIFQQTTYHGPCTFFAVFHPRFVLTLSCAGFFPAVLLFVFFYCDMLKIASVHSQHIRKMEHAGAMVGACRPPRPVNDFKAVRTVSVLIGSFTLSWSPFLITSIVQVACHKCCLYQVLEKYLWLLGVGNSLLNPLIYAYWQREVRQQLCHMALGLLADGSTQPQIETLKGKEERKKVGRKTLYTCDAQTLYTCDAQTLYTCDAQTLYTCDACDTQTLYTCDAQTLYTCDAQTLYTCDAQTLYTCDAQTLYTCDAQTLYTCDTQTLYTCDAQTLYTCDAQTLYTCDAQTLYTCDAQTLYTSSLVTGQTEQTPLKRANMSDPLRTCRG
Experiment: Agonist activity at rat GPR119 by HTRF cAMP assay relative to AR231453
Assay type: functional
Assay Endpoint: Emax (%)
Give the value, in units of %, as a plain number.

Prompt line: Which measured Emax value corresponds to CS(=O)(=O)c1cnc(O[C@H]2CC[C@H](OC3CCN(C(=O)C4(C(F)(F)F)CC4)CC3)CC2)cn1 ?
Response line: 140

Prompt line: Recorded Emax of Cc1nc(S(C)(=O)=O)ccc1Oc1ncnc(OC2CCN(C(=O)OC3(C)CC3)CC2)c1F , please.
Response line: 93

Prompt line: Entry under review: C[C@@H](CF)OC(=O)N1CCC(O[C@H]2CC[C@H](Oc3cnc(S(C)(=O)=O)cn3)CC2)CC1 . Reported Emax?
Response line: 123

Prompt line: For the compound CS(=O)(=O)c1cnc(O[C@H]2CC[C@H](OC3CCN(CC4(F)CCCC4)CC3)CC2)cn1 , what Emax is on record?
Response line: 119

Prompt line: Returns the measured Emax for the input compound. Input: CC(C)(C)OC(=O)N1CCC(O[C@H]2CC[C@H](Oc3ccc(C#N)cc3)CC2)CC1
Response line: 106

Prompt line: Return reported Emax; argument: C[C@H](CF)OC(=O)N1CCC(O[C@H]2CC[C@H](Oc3cnc(S(C)(=O)=O)cn3)CC2)CC1
Response line: 115

Prompt line: Requested read-out: Emax. Entry: CS(=O)(=O)c1cnc(O[C@H]2CC[C@H](OC3CCN(C(=O)C4(C(F)(F)F)CCCC4)CC3)CC2)cn1
Response line: 124

Prompt line: // returns reported Emax for input CC(C)(C)OC(=O)N1CCC(O[C@H]2CC[C@H](Oc3ccc(S(C)(=O)=O)cc3F)CC2)CC1
Response line: 119

Prompt line: Entry CC1(OC(=O)N2CCC(O[C@H]3CC[C@H](Oc4cnc(S(C)(=O)=O)cn4)CC3)CC2)CC1 : reported Emax = ?
Response line: 123

Prompt line: Requested read-out: Emax. Entry: CS(=O)(=O)c1cnc(O[C@H]2CC[C@H](OC3CCN(C(=O)OC(CF)CF)CC3)CC2)cn1
Response line: 128

Prompt line: If you can, please state the reported Emax value of CS(=O)(=O)c1cnc(O[C@H]2CC[C@H](OC3CCN(CC4(C(F)(F)F)CCC4)CC3)CC2)cn1 .
Response line: 99

Prompt line: Reported Emax for CC(C)OC(=O)N1CCC(O[C@H]2CC[C@H](Oc3cnc(S(C)(=O)=O)cn3)CC2)CC1 : what is it?
Response line: 120

Prompt line: Give the measured Emax of CC(C)(C)OC(=O)N1CCC(O[C@H]2CC[C@H](Oc3ccc(S(C)(=O)=O)cn3)CC2)CC1 .
Response line: 108

Prompt line: Requested read-out: Emax. Entry: CC(C)(C)OC(=O)N1CCC(O[C@H]2CC[C@H](Oc3ccc(S(C)(=O)=O)cc3)CC2)CC1
Response line: 120

Prompt line: Suppose we examine the compound CC(C)(C)OC(=O)N1CCC(O[C@H]2CC[C@H](Oc3cnc(C#N)cn3)CC2)CC1 ; what Emax value has been reported?
Response line: 100

Prompt line: Reported Emax, compound CC(C)(C)OC(=O)N1CCC(O[C@H]2CC[C@H](Oc3cnc(S(C)(=O)=O)cn3)CC2)CC1 : ____
Response line: 110

Prompt line: Could you share which Emax value was measured for CS(=O)(=O)c1cnc(O[C@H]2CC[C@H](OC3CCN(C(=O)OC(C(F)(F)F)C(F)(F)F)CC3)CC2)cn1 ?
Response line: 121

Prompt line: // Emax lookup, key: Cc1nc(S(C)(=O)=O)ccc1O[C@H]1CC[C@H](OC2CCN(C(=O)OC(C)C)CC2)CC1
Response line: 114

Prompt line: Query: Emax; subject: CC(C)(C)OC(=O)N1CCC(O[C@H]2CC[C@H](Oc3ccc(S(C)(=O)=O)c(F)c3)CC2)CC1
Response line: 109

Prompt line: Form field: reported Emax of C[C@H](OC(=O)N1CCC(O[C@H]2CC[C@H](Oc3cnc(S(C)(=O)=O)cn3)CC2)CC1)C(F)(F)F
Response line: 125

Prompt line: What does the record list as Emax for CS(=O)(=O)c1cnc(O[C@H]2CC[C@H](OC3CCN(CC(F)(F)F)CC3)CC2)cn1 ?
Response line: 105
